experiment: chemical genetic growth profiling, strain panel (AID 1159580);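 further: tested at 20 µM; growth read once vehicle control cultures reached saturation at 30 °C; 1 = growth at the plate median or of vehicle wells; lower values mean less growth of the strain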; conditions: S. cerevisiae deletion strains, growth OD, locus YJL095W, strain BCK1 (second series), active compounds read low
Among all 5,500 compounds or so, about 2,000 (36%) were called active. Another 18% or so got no clear call; they are omitted. Some of the results follow.
Consider the following compounds and their measured normalized growth readings.

{"Compound": "O=C(Oc1cc(OC(=O)c2ccccc2)c2c(c1)O[C@H](c1ccc(OC(=O)c3ccccc3)c(OC(=O)c3ccccc3)c1)[C@@H](OC(=O)c1ccccc1)C2)c1ccccc1", "normalized growth": 0.998}
{"Compound": "C=CC[C@]1(O)CCC2C3CCC4=CC(=O)CCC4=C3C=C[C@@]21C (stereo partly specified)", "normalized growth": 1}
{"Compound": "CCCCCCCCCCC[C@@H](C[C@H]1OC(=O)[C@H]1CCCCCC)OC(=O)[C@@H](CC(C)C)NC=O", "normalized growth": 1.03}
{"Compound": "CCCCCCCCC(=O)NCc1ccc(O)c(OC)c1", "normalized growth": 1}
{"Compound": "CC(=O)Oc1cc(OC(C)=O)c2c(c1)O[C@H](c1ccc(OC(C)=O)c(OC(C)=O)c1)[C@H](OC(C)=O)C2", "normalized growth": 0.99}
{"Compound": "O=C(O[C@@H]1Cc2c(O)cc(O)cc2O[C@@H]1c1ccc(O)c(O)c1)c1cc(O)c(O)c(O)c1", "normalized growth": 0.997}
{"Compound": "COc1cc([C@@H]2c3cc4c(cc3[C@@H](O)C3COC(=O)C32)OCO4)cc(OC)c1O (stereo partly specified)", "normalized growth": 0.981}
{"Compound": "N[C@@H](Cc1ccc(N(CCCl)CCCl)cc1)C(=O)O", "normalized growth": 0.984}
{"Compound": "C=C[C@@](C)(O)CCC1C(=C)C[C@H](OC(C)=O)C2C(C)(C)CCCC12C (stereo partly specified)", "normalized growth": 1.03}
{"Compound": "COc1cc([C@@H]2c3cc4c(cc3C(OC3O[C@@H]5COC(C)O[C@H]5[C@H](O)[C@H]3O)C3COC(=O)[C@@H]32)OCO4)cc(OC)c1O (stereo partly specified)", "normalized growth": 1.03}
{"Compound": "CN(C)CCN(Cc1cccs1)c1ccccn1", "normalized growth": 1.01}
{"Compound": "Oc1cc(O)c2c(c1)O[C@H](c1ccc(O)c(O)c1)[C@H](O)C2", "normalized growth": 1.01}
{"Compound": "C=CCc1ccc(OC)cc1", "normalized growth": 1.01}
{"Compound": "COc1ccc(-c2coc3cc(O)ccc3c2=O)c(OC)c1", "normalized growth": 1}
{"Compound": "CN(C)CCN(Cc1ccccc1)c1ccccn1", "normalized growth": 1.01}
{"Compound": "C#CCN(C)Cc1ccccc1", "normalized growth": 1.01}
{"Compound": "COC(=O)C[C@H]1C2(C)CC34OC5(C)O[C@@]6([C@H](OC)C(OC(=O)C(C)C)[C@]7(C)C(/C(=C(/OC)C(C)C)C(=O)O[C@H]7c7ccoc7)[C@@]6(O5)[C@H](OC)[C@@]3(OC)C2OC(C)=O)[C@]14C (stereo partly specified)", "normalized growth": 0.995}
{"Compound": "O=S(=O)(O)c1cc(N=C=S)ccc1/C=C/c1ccc(N=C=S)cc1S(=O)(=O)O", "normalized growth": 1.02}
{"Compound": "O=C1NCC2(CCN(CCc3ccccc3)CC2)O1", "normalized growth": 0.993}
{"Compound": "C=C1CCC2[C@](C)(CO)[C@H](O)CC[C@@]2(C)[C@@H]1C/C=C1/C(=O)OC[C@H]1O (stereo partly specified)", "normalized growth": 0.982}
{"Compound": "COc1ccc2c(c1)OC/C(=C\\c1ccc(OC)c(O)c1)C2=O", "normalized growth": 0.899}
{"Compound": "COc1ccc(-c2coc3cc(O)ccc3c2=O)c(O)c1O", "normalized growth": 0.952}
{"Compound": "CN1CCC(OC(c2ccccc2)c2ccccc2)CC1", "normalized growth": 0.988}
{"Compound": "COC(=O)C[C@H]1C2(C)CC34OC5(C)O[C@@]6([C@H](OC(C)=O)C(OC(C)=O)[C@]7(C)C(/C(=C(/O)C(C)C)C(=O)O[C@H]7c7ccoc7)[C@@]6(O5)[C@H](OC(C)=O)[C@@]3(O)C2OC(=O)C(C)C)[C@]14C (stereo partly specified)", "normalized growth": 1}
{"Compound": "CC#CC1(O)CCC2C3CCC4=CC(=O)CCC4=C3C(c3ccc(N(C)C)cc3)CC21C (stereo unspecified)", "normalized growth": 0.998}
{"Compound": "OCCc1ccccc1", "normalized growth": 0.986}
